Target: T1, p58C272-464 (DNA primase regulatory subunit C-terminal domain) (human, UniProt P49643 272-464)
T1 sequence: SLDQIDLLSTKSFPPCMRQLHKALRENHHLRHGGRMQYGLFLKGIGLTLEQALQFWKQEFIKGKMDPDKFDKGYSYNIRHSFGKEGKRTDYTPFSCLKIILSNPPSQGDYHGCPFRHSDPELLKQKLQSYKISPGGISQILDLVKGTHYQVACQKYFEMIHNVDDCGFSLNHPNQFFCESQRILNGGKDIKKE
Assay: fluorescence anisotropy; 20 mM MES pH 6.5, 50 mM NaCl, 2 mM DTT (plus 0.05% Tween for FI), 50 nM substrate, 25 C; 15 min incubation at room temperature
Settings: protein: recombinant; tags: 6xHis tag cleaved with H3C protease; label: 5'-6FAM on DNA template (S4 Dataset says FITC); 12 bp RNA-DNA hybrid; template 5' overhang 4 nt and 3' overhang 6 nt
quantity: Kd
Please give the number followed by its unit.

Measured Kd of FA substrate: 12 nt RNA-primed 22 nt DNA template (DNA:RNA, 5'-triphosphate on RNA primer (RNA printed with T as S5; written here with U)) RNA: GGACCUCCAGGA DNA: AAACTCCTGGAGGTCCAACATA : 3.6 µM
